Ref: ChEMBL document CHEMBL2218924

Target: Ephrin type-B receptor 1 (Homo sapiens) (UniProt P54762)
Sequence (P54762 whole entry): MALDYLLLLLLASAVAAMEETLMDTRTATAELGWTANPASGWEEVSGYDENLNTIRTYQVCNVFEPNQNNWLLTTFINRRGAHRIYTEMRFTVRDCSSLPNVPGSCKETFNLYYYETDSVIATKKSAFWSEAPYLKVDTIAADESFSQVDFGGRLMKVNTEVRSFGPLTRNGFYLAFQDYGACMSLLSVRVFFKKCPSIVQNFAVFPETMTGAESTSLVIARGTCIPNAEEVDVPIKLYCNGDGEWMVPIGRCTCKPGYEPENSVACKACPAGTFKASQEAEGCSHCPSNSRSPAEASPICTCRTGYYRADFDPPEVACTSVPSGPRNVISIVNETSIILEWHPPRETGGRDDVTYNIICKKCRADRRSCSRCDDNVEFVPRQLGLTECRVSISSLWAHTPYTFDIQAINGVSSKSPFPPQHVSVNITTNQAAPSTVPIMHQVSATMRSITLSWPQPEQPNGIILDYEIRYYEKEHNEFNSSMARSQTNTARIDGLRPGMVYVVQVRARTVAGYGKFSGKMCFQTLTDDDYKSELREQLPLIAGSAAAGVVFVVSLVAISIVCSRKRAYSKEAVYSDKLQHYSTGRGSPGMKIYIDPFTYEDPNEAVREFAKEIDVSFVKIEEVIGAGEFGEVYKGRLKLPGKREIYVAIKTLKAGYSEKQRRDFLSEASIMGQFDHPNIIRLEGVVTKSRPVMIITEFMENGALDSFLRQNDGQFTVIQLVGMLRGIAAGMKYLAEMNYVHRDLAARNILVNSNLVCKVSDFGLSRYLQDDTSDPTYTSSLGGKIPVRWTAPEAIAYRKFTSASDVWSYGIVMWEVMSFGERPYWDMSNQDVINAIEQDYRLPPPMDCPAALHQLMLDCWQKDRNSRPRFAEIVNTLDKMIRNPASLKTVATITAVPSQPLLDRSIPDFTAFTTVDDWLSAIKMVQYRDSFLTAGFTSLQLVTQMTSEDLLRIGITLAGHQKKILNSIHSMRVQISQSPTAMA
Conditions: at 10 µM
measured.metric: residual activity (%)
Reply numerically in %, unit not repeated.

O=C1C(Cl)=C(N2C(=O)CCC2=O)C(=O)c2ccccc21
93
O=C(c1cc2cc(O)ccc2[nH]1)c1cc2cc(O)ccc2[nH]1
28
O=c1cc(N2CCNCC2)oc2c(-c3ccccc3)cccc12
105
O=C(Nc1nc2ccccc2n1CCN1CCOCC1)c1cccc([N+](=O)[O-])c1
103

Q: Form entry - test system: Ephrin type-B receptor 1 (Homo sapiens) (UniProt P54762); read-out: residual activity; compound: CCCCc1c(-c2ccc(OC)cc2)[nH]c2nccnc12
A: 61

Q: Short answer please: residual activity, Ephrin type-B receptor 1 (Homo sapiens) (UniProt P54762), entry O=C1Cc2c([nH]c3ccc([N+](=O)[O-])cc23)-c2ccccc2N1
A: 81

Q: Hi! What's the reported residual activity for CC(C)(C)n1nc(Cc2cccc3ccccc23)c2c(N)ncnc21 on Ephrin type-B receptor 1 (Homo sapiens) (UniProt P54762)?
A: 0

Q: API: value(readout= residual activity, system= Ephrin type-B receptor 1 (Homo sapiens) (UniProt P54762), query= COc1cc2c(cc1OC)-c1n[nH]c(Nc3cccc(F)c3)c1C2 )
A: 43

Q: Missing value: residual activity, Ephrin type-B receptor 1 (Homo sapiens) (UniProt P54762), entry O=C(c1ccccc1)c1ccc(N2CCOCC2)cc1O . Fill in?
A: 95

Q: Form field - read-out: residual activity; system: Ephrin type-B receptor 1 (Homo sapiens) (UniProt P54762); submitted item: N#Cc1c(NC(=O)c2cccc3ccccc23)sc2c1CCCC2
A: 95

Q: Notebook: pull reported residual activity for Ephrin type-B receptor 1 (Homo sapiens) (UniProt P54762), entry Cn1c2ccccc2c2c3c(c4c5ccccc5n(CCC#N)c4c21)CNC3=O
A: 63
